assay: Genotoxicity in Salmonella typhimurium TA1535 harboring pSK1002 assessed as umu gene induction at 0.004 mg/ml in absence of Sprague-Dawley rat liver S9 fraction metabolic activation by SOS/umu assay relative to control; assay type: toxicity; settings: salmonella enterica subsp. enterica serovar typhimurium, read-out: FC
measured_metric: fold induction at 0.004 mg/ml
Lab note: write the figure by itself, no unit.

smiles_representation=O=C(CCN1CCN(c2ccc(Cl)cc2)CC1)c1ccc(O)cc1 meas_value=0.68

In the following, a different compound is considered.
Prompt line: Name the reported fold induction at 0.004 mg/ml value associated with the compound O=C(CCN1CCN(c2ccc(C(F)(F)F)cc2)CC1)c1ccc(O)cc1
Response line: 0.69
